B1: Twister Ribozyme (parent)
chain: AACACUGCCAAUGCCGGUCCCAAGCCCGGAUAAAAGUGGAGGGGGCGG

Variants of: B1
Assay: self-cleavage, relative activity (ratio to wild type); higher = more cleavage; co-transcriptional
Entries and their self-cleavage
Simply state the number, no unit and no words.

Reference set (2 entries):
INSERT INTO measurements (residuechange, numericresult) VALUES
  ('A34U A35G', 0.191),
  ('C19G G45A', 0.321);

Turning to the following variant.
Exercise: For C9G A10C , what is its reported self-cleavage?
Key: 0.857
